B1: Hairpin Ribozyme (parent)
chain: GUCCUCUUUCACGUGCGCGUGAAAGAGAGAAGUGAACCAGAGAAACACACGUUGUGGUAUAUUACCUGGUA

Variants of: B1
Assay: self-cleavage, relative activity (ratio to wild type); higher = more cleavage; co-transcriptional
endpoint_name: self-cleavage
Output: the number by itself.

Below, each entry is followed by its recorded self-cleavage result.
{"columns": ["mutation_annotation", "self-cleavage"],
 "data": [
  ["C16A C37U", 0.519],
  ["U2G U8G", 0.471]
]}

// below: self-cleavage requested for another variant
Ask: Item C18U C65G has what recorded self-cleavage?
Reply: 0.27
